test system: COLO 205 colon; assay: NCI-60 one-dose screen, 48 h; details: 10 µM unless noted
The panel holds about 83,000 compounds, 20% with a hit somewhere; the sample as a whole holds those more often. The source made the active and inactive calls. The calls were made as follows: active = growth percent below 10; inactive = the rest.
Choose the fitting class; nothing outside active, inactive is accepted.

- Molecule: "Cn1c(NCCc2ccc(O)c(O)c2)nc2c1c(=O)n(Cc1ccc(Cl)c(Cl)c1)c(=O)n2C"
  Target Or System: "COLO 205 colon"
  Label Class: "inactive"

What classification did NC(=NC1C2CC3CC(C2)CC1C3)Nc1ccc(I)cc1 (stereo not drawn) end up with in this test?
active

What classification did CCOC(=O)c1sc2nc(-c3cccc(O)c3)nc(N3CCOCC3)c2c1C end up with in this test?
inactive

What classification did Cc1cc(N2CCOCC2)nc(N[C@@H]2CCC[C@H](Nc3ccnc4cc(Cl)ccc34)C2)n1 end up with in this test?
active

----------
system: MOLT-4 leukemia; assay: NCI-60 one-dose screen, 48 h; conditions: 10 µM unless noted
The panel holds about 83,000 compounds, 20% with a hit somewhere; the sample as a whole holds those more often. Activity calls are given as the source filed them. Rule for the calls: active = growth percent below 10; inactive = the rest.
Choose the fitting class; nothing outside True (active), False (inactive) is accepted.

Example results:
- Molecule: "COc1cc2c(cc1O)CC[C@@H]1[C@@H]2CC[C@]2(C)[C@@H](OCCCN(C)C)CC[C@@H]12"
  Label Class: "True"
- Molecule: "CN1CCN(Cc2ccc(NC(=O)c3cncc(C#Cc4cncn5ccnc45)c3)cc2C(F)(F)F)CC1"
  Label Class: "False"

What classification did Cc1[nH]c(-c2ccc3cc[nH]c3c2)c2c1C(=O)CCCC2 end up with in this test?
False

What classification did COc1cc(-c2nc3ccccc3[nH]2)ccc1OCC(=O)N=Nc1c(O)[nH]c2ccc(Cl)cc12 end up with in this test?
True

What classification did COc1cccc(-c2nn(C(C)(C)C)cc2-c2ccnc(NCCCNS(=O)(=O)c3cccc4ccccc34)c2)c1 end up with in this test?
False

What classification did C=C(C)C1CC(O)C2(C)CCCC3C2C1CC(C)C3(C)CC/C(C)=C/C(O)C1CCC(=O)c2c(OC)cc(OC)cc21 (configuration not stated) end up with in this test?
False

What classification did O=C(/C=C/c1ccccc1)c1ccc(O)c(CN2CCN(c3cc4c(cc3F)c(=O)c(C(=O)O)cn4C3CC3)CC2)c1 end up with in this test?
False

----------
test system: SF-268 CNS; test: NCI-60 one-dose screen, 48 h (100 = growth as untreated, 0 = no growth, -100 = all killed); settings: 10 µM unless noted
About 83,000 compounds went through this panel and 20% of them were active in at least one assay; those are over-represented in the sample as a whole. The source made the active and inactive calls. How the source made its calls: active means growth percent below 10; inactive means the rest.
Please go through the items and note down their growth.

- Compound: "O=C1Nc2c(ccc(Cl)c2Cl)/C1=C\\c1cc(C(F)(F)F)cc(C(F)(F)F)c1"
  Result: "9.57% (active)"
- Compound: "O=C(N/N=C/c1c[nH]c2ccccc12)c1cc(-c2ccccc2)on1"
  Result: "85.9% (inactive)"
- Compound: "CCOc1ccc(C(C)=O)cc1NC(=O)c1cccc(-c2nnn(CC)n2)c1"
  Result: "59% (inactive)"
- Compound: "CC1=C[C@H]2c3c(c(O)c(O)c4oc5c(C)cccc5c(=O)c34)[C@H](c3cc(O)c(O)c4oc5c(C)cccc5c(=O)c34)[C@H]2C(C)(C)C1"
  Result: "-1.07% (active)"
- Compound: "COc1cc2c(cc1-c1c(C)noc1C)ncc1nc(C3CCCC3)n([C@H](C)COC(F)F)c12"
  Result: "62.6% (inactive)"
- Compound: "C=C(C)[C@@H]1CC[C@]2(C(=O)OC)CC[C@]3(C)[C@H](CC[C@@H]4[C@@]5(C)C/C(=C/c6cccc(I)c6)C(=O)C(C)(C)[C@@H]5CC[C@]43C)[C@@H]12"
  Result: "95.1% (inactive)"

Below are 6 compounds. Give each one its growth.
1. COC[C@H](C)n1c(C2CCOCC2)nc2cnc3cc(-c4c(C)noc4C)c(OC)cc3c21
2. COc1ccc(Nc2nc(SC)nc(-c3cccc([N+](=O)[O-])c3)c2C#N)cc1
3. O=C1/C(=C/N2N=C(c3ccc4ccccc4c3)CC2c2ccccc2O)SC(=S)N1c1cccnc1 (centres undefined)
4. CCOC(=O)c1sc2nc(-c3cccc(O)c3)nc(N3CCOCC3)c2c1C
5. O=C(/C=C/C=C/c1ccc2c(c1)OCO2)N/N=C\c1ccc(O)cc1O
6. COc1cc2nc(N3CCCC3)nc(NCCc3ccccc3)c2cc1OC

76.7% (inactive)
71.6% (inactive)
31.9% (inactive)
48.9% (inactive)
24.4% (inactive)
87.2% (inactive)

----------
tested on: CAKI-1 renal; assay: NCI-60 one-dose screen, 48 h (100 = growth as untreated, 0 = no growth, -100 = all killed); conditions: 10 µM unless noted
This is part of a sample that, as a whole, favours compounds with a hit. Of some 83,000 tested, about 20% had one in any assay. Active and inactive are the calls of the source. How the source made its calls: active means growth percent below 10; inactive means the rest.
Please go through the items and note down their growth.

Here's what some known entries look like.
- Compound: "Cc1nc(Nc2ccc(F)c(Cl)c2)sc1C(=O)O"
  growth: "8.86% (active)"
- Compound: "Oc1cccc(-c2nc(N3CCOCC3)c3c4c(sc3n2)CCCC4)c1"
  growth: "69.8% (inactive)"
- Compound: "Cc1cc(C)c2nc3nc(C)cc(C)c3c(N)c2c1"
  growth: "10.4% (inactive)"

Below are 3 compounds. Give each one its growth.
1. CCCN1CCN(c2ccc3nc(-c4ccc5nc(-c6ccc(OCC)cc6)[nH]c5c4)[nH]c3c2)CC1
2. CCOc1nc(-c2ccccc2)cc2c(O)c(C(=O)N/N=C/c3ccc(O)cc3O)[nH]c(=O)c12
3. Cc1cc(C)nc(SC2=C(Nc3ccc(O)cc3)C(=O)N(Cc3ccccc3)C2=O)n1

1. 49.3% (inactive)
2. 8.55% (active)
3. 64.4% [40 µM] (inactive)

Below are 4 compounds. Give each one its growth.
1. COC(=O)[C@]12CCC(C)(C)C[C@H]1[C@H]1C(=O)C[C@@H]3[C@@]4(C)c5c([nH]c6ccccc6c5=O)C(C)(C)[C@@H]4CC[C@@]3(C)[C@]1(C)CC2
2. Cn1cc(-c2nonc2-c2c[nH]c3ccccc23)c2cccnc21
3. CCN=C1C=CC(=C(c2ccc(N)cc2)c2ccc(N(CC)CC)c(C)c2)C=C1
4. C#CC(F)(F)[C@]1(O)CC[C@H]2[C@@H]3CCC4=CC(=O)CCC4=C3[C@@H](c3ccc(C4CC4)cc3)C[C@@]21C

1. 50.7% (inactive)
2. 39.3% (inactive)
3. 14.1% (inactive)
4. -73.3% (active)

Below are 5 compounds. Give each one its growth.
1. CCOc1nc(-c2ccccc2)cc2c(O)c(C(=O)O)[nH]c(=O)c12
2. COc1ccc(/C=C\c2cc(OC)c(OC)c(OC)c2)cc1OCC(=O)Nc1ccc2nc(C)sc2c1
3. COc1cc2nc(N3CCCC3)nc(NCC3CCCCC3)c2cc1OC
4. CC(=O)OC[C@H]1O[C@H](OC(C)=O)[C@H](NC(=O)/C=C/CCl)[C@@H](OC(C)=O)[C@@H]1OC(C)=O
5. COc1cc(C2CC(=O)c3ccccc3N2)cc(OC)c1OC (stereo not drawn)

105% (inactive)
23% (inactive)
13.3% (inactive)
101% (inactive)
93.4% (inactive)

Below are 3 compounds. Give each one its growth.
1. N#Cc1c(N)n(CCNC(=O)c2ccccc2)c2nc3ccccc3nc12
2. CCCc1cc(=O)n2c(C(=O)Nc3cccc(C(=O)OCC)c3)c(C(=O)Nc3ccc(F)cc3)sc2n1
3. O=C(/C=C/c1cccc([N+](=O)[O-])c1)c1ccc(O)c(CN2CCN(c3cc4c(cc3F)c(=O)c(C(=O)O)cn4C3CC3)CC2)c1

["115% (inactive)", "17.3% [30 µM] (inactive)", "42.3% (inactive)"]

----------
Please go through the items and note down their growth.
Tested on: MDA-MB-435 melanoma
Assay: NCI-60 one-dose screen, 48 h (100 = growth as untreated, 0 = no growth, -100 = all killed)
Conditions: 10 µM unless noted
Procedure: Growth inhibition of the MDA-MB-435 human Melanoma tumor cell line is measured as a screen for anti-cancer activity. Cells are grown in 96 well plates and exposed to the test compound for 48 hours. Compounds are tested at a single concentration, which is 10^-5 M for most compounds. The reported endpoint is percent growth (GI% or GIPRCNT), where numbers from 0 - 100% represent growth inhibition, and numbers from -100% - 0 represent cell death. […]
About 83,000 compounds went through this panel and 20% of them were active in at least one assay; those are over-represented in the sample as a whole.
Answers are plain numbers, in %.

- Compound: "CSc1nc(NCCN2CCOCC2)c(C#N)c(-c2cccc([N+](=O)[O-])c2)n1"
  Measurement Kind: "growth"
  Result: 104
- Compound: "O=C(Nc1cccc2[nH]c(C(F)(F)F)nc12)c1ccc(-n2cnnn2)cc1"
  Measurement Kind: "growth"
  Result: 105
- Compound: "O=C1Nc2ccc(Br)cc2C12Oc1ccccc1C1CC(c3ccc(F)cc3)=NN12 (centres undefined)"
  Measurement Kind: "growth"
  Result: 99.8

Moving on to the next compound.
Quick one: growth of CCOC(=O)c1sc2nc(-c3cccc(OC)c3)nc(N3CCOCC3)c2c1C ?
96.9

Reference for the values: PubChem BioAssay (NCI)
